- System: M14 melanoma
- ASSAY NOTES: NCI tumour cell line growth inhibition, 48 h
QUANTITY KIND: TGI

Record summary for C(CCC[Te][Te]CCCCCCOC1CCCCO1)CCOC1CCCCO1 (stereo not given) : reported TGI = > 100 µM

Recorded result, CCCCNN , TGI: > 100 µM

Record summary for O=C1C(F)=CC(COC(c2ccccc2)(c2ccccc2)c2ccccc2)OC1n1cc(F)c(=O)[nH]c1=O (stereo not given) : reported TGI = 5.03 µM

The compound listed as c1ccc(C2=Nc3nc4ccccc4n3C(c3ccccc3)C2)cc1 (stereo not given) has a reported TGI of > 100 µM

Consider CCCCCCCCCCCCCCCCCCNc1ccn(C2OC(COP(=O)(O)OCC3CCC(n4cnc5c(=O)[nH]cnc54)O3)C(O)C2O)c(=O)n1 (stereo not given) . Its measured TGI is > 100 µM

According to the records, this compound Clc1ccc2[nH]cc(-c3nc(-c4c[nH]c5ncccc45)cs3)c2c1 displays TGI of 11.1 µM

Field TGI (entry Cc1c(C(=O)N2CCN(c3ccc([N+](=O)[O-])cc3)CC2)[n+](=O)c2cc(Cl)c(Cl)cc2n1[O-] ) reads > 100 µM

Recorded result, NC1CCN(c2nc(Nc3cccc(C(F)(F)F)c3)c3c(=O)[nH]ccc3n2)CC1 , TGI: 2.23 µM

Reported TGI for CC1(C)[C@@H](Cn2cnc3c(N)ncnc32)CC[C@@]1(C)CO was > 100 µM

For COc1cccc(NC(=O)CC(=O)N2N=C(N(CCC#N)c3ccccc3C)CC2c2ccccc2)c1 (stereo not given) the compound record lists TGI as > 100 µM

----------
For each record, write down the corresponding TGI.
- Test system: K-562 leukemia
- ASSAY NOTES: NCI tumour cell line growth inhibition, 48 h

Case N#Cc1cnc2cc(OC[C@@H](O)CO)c(NC(=O)CC3CSSC3)cc2c1Nc1ccc(OCc2cccc(F)c2)c(Cl)c1 , K-562 leukemia, TGI recorded as 0.207 µM

Form field, TGI with K-562 leukemia, item Clc1ccc2sc(-n3ccc4ccccc43)nc2c1 : > 100 µM

Measured on K-562 leukemia, NCCCn1c2ccccc2c2c3c(c4c(c21)CCC(O)CC4)C(=O)NC3=O (stereo not given) has a documented TGI of 8.5 µM

Reported K-562 leukemia TGI for item COc1cc(/C=C\[N+](=O)[O-])ccc1OCc1ccccc1 was 11.1 µM

Sample COC(=O)C1=C(C)NC2(O)C=CC(=O)C3C(=O)N(c4ccccc4)C(=O)C132 (stereo not given) , system: K-562 leukemia. Its TGI is > 100 µM

Summary: Cn1ccn2c3nc4ccccc4nc3c(=O)c(C#N)c12 , K-562 leukemia, TGI = > 100 µM

Response field TGI (K-562 leukemia) for item Nc1ccc(S(=O)(=O)C23CC4CC(CC(C4)C2)C3)cc1 : > 100 µM

Measured TGI (K-562 leukemia), entry Cc1sc2nc(-c3cc([N+](=O)[O-])c(Cl)cc3Cl)c(/C=N/N=C(N)N)n2c1C : 9.95 µM

Log: K-562 leukemia, compound Cc1c(C(=O)c2ccccc2C(=O)O)c2ccccc2n1C , TGI = > 100 µM

# CCOC(=O)c1[nH]c(-c2ccc(Cl)cc2)cc1-c1cccnc1 with K-562 leukemia: TGI is > 100 µM

Per the reported K-562 leukemia data, COCCOC(=O)NC(=O)Nc1ccc(/C(=N/O)c2ccc(Cl)cc2)cc1 has TGI of 31.9 µM

Per the reported K-562 leukemia data, O=C(Nc1nc2ccccc2n1Cc1ccccc1)NC12CC3CC(CC(C3)C1)C2 has TGI of > 100 µM

Entry COc1cccc(C(=O)N2CCc3ccccc32)c1OC , tested on K-562 leukemia, has a reported TGI of > 100 µM

Reading of TGI for C/C(=N\NS(=O)(=O)c1ccccc1)c1ccccc1 with K-562 leukemia: > 100 µM

Value (TGI, K-562 leukemia) for record NC(=O)N/N=C/C(/C=N/NC(N)=O)[N+](=O)[O-] = > 100 µM

----------
- Tested on: SK-MEL-2 melanoma
Mark one answer only. Choices: active, inactive

Problem: // outcome(item) with item = O=C(Nc1ccc(F)cc1)c1c(NC(=O)C(F)(F)F)sc2c1CCCCC2
Solution: inactive

Problem: I would be grateful if you could indicate the recorded call for Cc1nc2sc(C(=O)Nc3cccc4ccccc34)c(N)c2cc1C(=O)c1ccccc1 .
Solution: inactive

Problem: I would be grateful if you could indicate the recorded call for CC(C)c1ccc(C(=O)Nc2sc3c(c2C#N)CCC(=O)C3)cc1 .
Solution: inactive

Problem: Recorded call for CC[C@@]1(O)C(=O)NCc2c1cc1n(c2=O)Cc2cc3c(N)cccc3nc2-1 ?
Solution: inactive

Problem: // param item: COc1ccccc1NC(=O)n1nc(N)c2ccccc21 ; yields the recorded call
Solution: inactive

Problem: Give the logged outcome of this assay for the following molecule: O=C(Nc1ccc(Cl)cc1)c1ccc(NC2=C(Cl)C(=O)N(Cc3ccccc3)C2=O)cc1
Solution: inactive

Problem: Please indicate how the test categorized OCC1OC(n2ccc3c(NO)ncnc32)C(O)C1O (stereo not given) .
Solution: active

Problem: GET /call?item= C#CC1(O)C(COP(=O)(O)OC2CC(n3cc(F)c(=O)[nH]c3=O)OC2CO)OC(n2ccc(N)nc2=O)C1O (stereo not given) returns the recorded outcome of this test.
Solution: active

Problem: Please indicate how the test categorized COC(=O)c1c2c(c(C)[n+]([O-])c1C)C(=O)C=C(NCc1ccc(F)c(F)c1)C2=O .
Solution: inactive

Problem: What classification did Cc1cc(C)c(C[N+](C)(C)C)c(C)c1C end up with in this test?
Solution: inactive

Problem: Which result was noted for this molecule in the test: CCOC(=O)C(=Cc1ccccc1[N+](=O)[O-])C(=O)OCC
Solution: inactive

Problem: Could you check what this test reported for Clc1ccc2[nH]cc(-c3nc(-c4c[nH]c5ncccc45)cs3)c2c1 ?
Solution: inactive

Problem: Kindly provide the recorded test outcome for the following molecule: Cn1c(=O)c(Oc2ccccc2F)cc2cnc(NC3CCOCC3)nc21
Solution: inactive

Problem: Which outcome did this test record for the molecule COc1ccc2c(Nc3ccc(NS(C)(=O)=O)cc3)c3ccccc3nc2c1 ?
Solution: active

Problem: Given O=[N+]([O-])c1ccc(N/N=C/c2c(O)ccc3ccccc23)nc1 , state the outcome it received in this test.
Solution: inactive

----------
- Test system: SR leukemia
- ASSAY NOTES: NCI tumour cell line growth inhibition, 48 h
Answer each item with its documented TGI.

Test item O=[N+]([O-])/C(C(Cl)=C(Cl)Cl)=C1\NCCO1 ; SR leukemia; reported TGI was > 100 µM

Record O=c1/c(=C\c2ccccc2)sc2n1C(c1ccccc1)C1(O)CCCCC1N=2 (stereo unspecified) / SR leukemia, TGI recorded as > 100 µM

Let me check: N#Cc1cnc2cc(OC[C@@H](O)CO)c(NC(=O)CC3CSSC3)cc2c1Nc1ccc(OCc2cccc(F)c2)c(Cl)c1 , system SR leukemia, measured TGI is 0.275 µM

Case O=C1/C(=C\c2cccc(Oc3ccccc3)c2)S(=O)(=O)C(c2ccccc2)N1c1ccccc1Cl (stereo unspecified) , SR leukemia, TGI recorded as 62.4 µM

Observed TGI, SR leukemia, Cc1ccnc2[nH]c(-c3cccc(Cl)c3)cc(=O)c12 : > 100 µM

Record CC(C)c1ccc(C(=O)Nc2sc3c(c2C#N)CCC(=O)C3)cc1 ; system SR leukemia; TGI = > 100 µM

SR leukemia TGI of Clc1cc2c(c(CSC3=NCN(CC4CC4)CN3)c1)OCOC2 is 42.2 µM

Short answer on SR leukemia for CC(C)=CC(=O)O[C@H]1C(=O)O[C@@H]2C[C@H]3[C@H](C)C(=O)C(O[C@@H]4O[C@H](CO)[C@@H](O)[C@H](O)[C@H]4O)=C[C@]3(C)[C@H]3[C@@H](O)[C@H](O)[C@]4(C(=O)O)OC[C@]32[C@@H]14 , TGI: > 100 µM

Log: SR leukemia, compound CN(C)c1ccc(/C=C2\N=C(NN)NC2=O)cc1 , TGI = > 100 µM

Fill in: SR leukemia TGI for COC(=O)/C=C(\C)C(=O)N(C)c1ccccc1I = > 100 µM

TGI for SR leukemia with input CCOC(=O)/C(=C\c1ccc(N(C)C)cc1)S(=O)(=O)C(F)(F)C(F)(F)C(F)(F)C(F)(F)F equals > 100 µM

The compound Nc1nnc2cc(Cl)ccc2n1 , tested on SR leukemia, showed TGI of > 100 µM

I looked up Cn1ccn2c3nc4ccccc4nc3c(=O)c(C#N)c12 and its TGI for SR leukemia was > 100 µM

Known value: SR leukemia TGI of the compound COc1ccc(N2C(=Nc3ccccc3)SC(=N/S(=O)(=O)c3ccccc3)/C2=N\S(=O)(=O)c2ccccc2)cc1 equals 40.4 µM

Tested on SR leukemia: CN(C)c1nc(NC23CC4CC(CC(C4)C2)C3)nc(N(C)C)n1 . Observed TGI: 53.9 µM

Record for CC[C@@]1(O)C(=O)NCc2c1cc1n(c2=O)Cc2cc3c(N)cccc3nc2-1 under target or system SR leukemia: TGI reported as 5.35 µM
